- assay.target: MIF (Homo sapiens, UniProt P14174)
- Sequence (P14174 1-115): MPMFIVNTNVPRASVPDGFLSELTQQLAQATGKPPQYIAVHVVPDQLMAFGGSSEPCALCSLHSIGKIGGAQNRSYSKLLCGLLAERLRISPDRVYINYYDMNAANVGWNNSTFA
- assay.details: Nuclease assay of Example 3 (MIF inhibitory activity, Table 4)
- Assay type: biochemical
- Design: concentration or dose not given beside the values
- assay.setup: nuclease assay of Example 3
Listing of recorded (%) inhibition of MIF nuclease activity by entry.
Output spec: scalar in %, unitless text.

COc1ccc(CC[C@H]2OC(=O)[C@@H]3CCCCN3C(=O)C(=O)C(C)(C)COC(=O)C=CCCN(C)C(=O)[C@H](Cc3ccc4ccccc4c3)NC(=O)[C@H](C(C)C)N(C)C(=O)[C@@H](Cc3ccccc3)NC(=O)[C@H](CC(C)C)N(C)C(=O)CCC(=O)Nc3cccc2c3)cc1OC = 21.3
COc1ccc(CC[C@H]2OC(=O)[C@@H]3CCCCN3C(=O)C(=O)C(C)(C)COC(=O)C=CCCN(C)C(=O)[C@H](Cc3ccccc3)NC(=O)[C@H](COC(C)(C)C)N(C)C(=O)[C@H](Cc3ccc4ccccc4c3)NC(=O)[C@H](C)N(C)C(=O)COc3cccc2c3)cc1OC = 45.7
COc1ccc(CC[C@H]2OC(=O)[C@@H]3CCCCN3C(=O)C(=O)C(C)(C)COC(=O)C=CCCN(C)C(=O)[C@@H]3CCCN3C(=O)[C@H](COC(C)(C)C)N(C)C(=O)C(c3ccccc3)NC(=O)C(c3ccccc3)N(C)C(=O)COc3cccc2c3)cc1OC (stereo partly shown) = 10.7

Turning to the following compound.
## Task Tell me the measured (%) inhibition of MIF nuclease activity of COc1ccc(CC[C@H]2OC(=O)[C@@H]3CCCCN3C(=O)C(=O)C(C)(C)COC(=O)C=CCCN(C)C(=O)[C@@H]3CCCN3C(=O)[C@H](COCc3ccccc3)N(C)C(=O)C(c3ccccc3)NC(=O)[C@H](C)N(C)C(=O)COc3cccc2c3)cc1OC (stereo partly shown) , please.
## Result 32.7
